meta.source: patent US9617251B2

Provide the reported solubility at 24 h of each item.
- assay.procedure: Aqueous solubility in buffer vs acetonitrile/water (1/1), LC-UV
- Format: physicochemical
- assay.setup: kinetic from dmso stock, buffer pH 2.2, 24 h shaking, 2.5% DMSO
Numbers only, in µg/mL.

COc1cc(-c2cc(C)c(-c3ccc(F)c4c3CC[C@H]4Nc3ccc([C@H]4C[C@@H]4C(=O)O)cn3)c(C)c2)ccn1	101

Batch lookup, solubility at 24 h per entry.
1. Cc1cc(OCC2CCOC2)cc(C)c1-c1ccc(F)c2c1CC[C@H]2Nc1ccc([C@H]2C[C@@H]2C(=O)O)cn1 (stereo partly drawn)
2. Cc1cc(C(=O)N(C)C)cc(C)c1-c1ccc(F)c2c1CC[C@H]2Nc1ccc([C@H]2C[C@@H]2C(=O)O)cn1
3. Cc1cc(-c2nnnn2CC(C)(C)O)cc(C)c1-c1ccc(F)c2c1CC[C@H]2Nc1ccc([C@H]2C[C@@H]2C(=O)O)cn1
4. Cc1cc(OCC2CCOCC2)cc(C)c1-c1ccc(F)c2c1CC[C@H]2Nc1ccc([C@H]2C[C@@H]2C(=O)O)cn1
5. Cc1cc(-c2ccn(C)c(=O)n2)cc(C)c1-c1ccc(F)c2c1CC[C@H]2Nc1ccc([C@H]2C[C@@H]2C(=O)O)cn1

[110, 117, 103, 90, 121]
